# target or test system: Sushi domains (SD1/2) protein
# assay summary: Fluorescence polarization (FP) competition assay with AJAP-1probe, calculated Ki
# Type: binding
# assay conditions: Table 12, deep mutational scanning validation variants of PIANPWT; read-out: Ki (nM) mean ± SEM
Residues, ends and D or L forms follow the SMILES beside them.
observable: Ki (nM)
Reply numerically in nM, unit not repeated.

Completed entries (count: 5):
molecule: CC[C@H](C)[C@H](NC(=O)[C@H](C)NC(=O)[C@H](Cc1c[nH]c2ccccc12)NC(=O)[C@@H]1CCCN1C(C)=O)C(=O)N[C@H](C(=O)N[C@@H](Cc1c[nH]c2ccccc12)C(=O)NCC(=O)N1CCC[C@H]1C(=O)N[C@H](C(=O)N[C@@H](CO)C(=O)N[C@@H](CO)C(=O)N[C@@H](CCCNC(=N)N)C(=O)N[C@@H](CCC(=O)O)C(=O)N[C@@H](CC(=O)O)C(N)=O)[C@@H](C)O)C(C)C [PWAIVWGPTSSRED] (Ac-PWAIVWGPTSSRED-NH2)
target or test system: Sushi domains (SD1/2) protein
observable: Ki
recorded result: 383

molecule: CC[C@H](C)[C@H](NC(=O)[C@H](Cc1ccc(O)cc1)NC(=O)[C@H](Cc1c[nH]c2ccccc12)NC(=O)[C@@H]1CCCN1C(C)=O)C(=O)N[C@H](C(=O)N[C@@H](Cc1c[nH]c2ccccc12)C(=O)NCC(=O)N1CCC[C@H]1C(=O)N[C@H](C(=O)N[C@H](C(=O)N[C@@H](CO)C(=O)N[C@@H](CCCNC(=N)N)C(=O)N[C@@H](CCC(=O)O)C(=O)N[C@@H](CC(=O)O)C(N)=O)C(C)C)[C@@H](C)O)C(C)C [PWYIVWGPTVSRED] (Ac-PWYIVWGPTVSRED-NH2)
target or test system: Sushi domains (SD1/2) protein
observable: Ki
recorded result: 336

molecule: CC[C@H](C)[C@H](NC(=O)[C@H](C)NC(=O)[C@H](Cc1c[nH]c2ccccc12)NC(=O)[C@@H](NC(C)=O)C(C)C)C(=O)N[C@H](C(=O)N[C@@H](Cc1c[nH]c2ccccc12)C(=O)NCC(=O)N1CCC[C@H]1C(=O)N[C@H](C(=O)N[C@H](C(=O)N[C@@H](CO)C(=O)N[C@@H](CCCNC(=N)N)C(=O)N[C@@H](CCC(=O)O)C(=O)N[C@@H](CC(=O)O)C(N)=O)C(C)C)[C@@H](C)O)C(C)C [VWAIVWGPTVSRED] (Ac-VWAIVWGPTVSRED-NH2)
target or test system: Sushi domains (SD1/2) protein
observable: Ki
recorded result: 412

molecule: CC[C@H](C)[C@H](NC(=O)[C@H](C)NC(=O)[C@H](Cc1ccccc1)NC(=O)[C@@H]1CCCN1C(C)=O)C(=O)N[C@H](C(=O)N[C@@H](Cc1c[nH]c2ccccc12)C(=O)NCC(=O)N1CCC[C@H]1C(=O)N[C@H](C(=O)N[C@H](C(=O)N[C@@H](CO)C(=O)N[C@@H](CCCNC(=N)N)C(=O)N[C@@H](CCC(=O)O)C(=O)N[C@@H](CC(=O)O)C(N)=O)C(C)C)[C@@H](C)O)C(C)C [PFAIVWGPTVSRED] (Ac-PFAIVWGPTVSRED-NH2)
target or test system: Sushi domains (SD1/2) protein
observable: Ki
recorded result: 792

molecule: CC[C@H](C)[C@H](NC(=O)[C@H](C)NC(=O)[C@H](Cc1c[nH]c2ccccc12)NC(=O)[C@H](CC(=O)O)NC(C)=O)C(=O)N[C@H](C(=O)N[C@@H](Cc1c[nH]c2ccccc12)C(=O)NCC(=O)N1CCC[C@H]1C(=O)N[C@H](C(=O)N[C@H](C(=O)N[C@@H](CO)C(=O)N[C@@H](CCCNC(=N)N)C(=O)N[C@@H](CCC(=O)O)C(=O)N[C@@H](CC(=O)O)C(N)=O)C(C)C)[C@@H](C)O)C(C)C [DWAIVWGPTVSRED] (Ac-DWAIVWGPTVSRED-NH2)
target or test system: Sushi domains (SD1/2) protein
observable: Ki
recorded result: 338

Let's switch to this molecule now.
Query block: Fill in reported Ki for this entry: CC[C@H](C)[C@H](NC(=O)[C@H](Cc1c[nH]c2ccccc12)NC(=O)[C@@H]1CCCN1C(C)=O)C(=O)N[C@H](C(=O)N[C@H](C(=O)N[C@@H](Cc1c[nH]c2ccccc12)C(=O)NCC(=O)N1CCC[C@H]1C(=O)N[C@H](C(=O)N[C@H](C(=O)N[C@@H](CO)C(=O)N[C@@H](CCCNC(=N)N)C(=O)N[C@@H](CCC(=O)O)C(=O)N[C@@H](CC(=O)O)C(N)=O)C(C)C)[C@@H](C)O)C(C)C)[C@@H](C)CC [PWIIVWGPTVSRED]
Result block: 339
